# target-entity: T1, human MerTK on human macrophages (human, UniProt Q12866 21-999)
# T1 sequence: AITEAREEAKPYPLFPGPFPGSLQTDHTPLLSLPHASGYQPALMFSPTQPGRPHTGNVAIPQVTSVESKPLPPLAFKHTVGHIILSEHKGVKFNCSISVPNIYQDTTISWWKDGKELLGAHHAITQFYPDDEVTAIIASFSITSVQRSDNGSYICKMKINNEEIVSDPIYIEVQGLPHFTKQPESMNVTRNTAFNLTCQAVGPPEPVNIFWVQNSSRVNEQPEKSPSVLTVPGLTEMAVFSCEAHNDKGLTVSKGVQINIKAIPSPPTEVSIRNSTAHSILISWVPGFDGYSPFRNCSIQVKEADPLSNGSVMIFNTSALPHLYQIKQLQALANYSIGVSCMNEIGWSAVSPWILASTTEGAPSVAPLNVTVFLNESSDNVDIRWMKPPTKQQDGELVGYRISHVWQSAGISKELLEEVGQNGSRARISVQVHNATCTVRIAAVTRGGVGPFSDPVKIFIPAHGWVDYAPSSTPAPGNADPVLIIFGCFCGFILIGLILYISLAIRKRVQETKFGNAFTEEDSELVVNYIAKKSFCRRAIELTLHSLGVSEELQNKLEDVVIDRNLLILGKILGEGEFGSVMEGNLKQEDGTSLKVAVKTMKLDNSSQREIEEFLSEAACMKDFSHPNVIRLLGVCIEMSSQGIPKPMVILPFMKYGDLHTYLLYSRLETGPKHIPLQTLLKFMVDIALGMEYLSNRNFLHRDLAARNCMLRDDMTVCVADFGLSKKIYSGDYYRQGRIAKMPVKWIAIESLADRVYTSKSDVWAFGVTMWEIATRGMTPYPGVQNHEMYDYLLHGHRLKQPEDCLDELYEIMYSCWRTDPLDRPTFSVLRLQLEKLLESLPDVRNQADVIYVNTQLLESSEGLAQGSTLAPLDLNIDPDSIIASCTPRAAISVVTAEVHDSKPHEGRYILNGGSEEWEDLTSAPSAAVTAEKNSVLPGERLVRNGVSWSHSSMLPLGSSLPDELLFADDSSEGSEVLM
# assay-explanation: cell-based or functional assay
value-type: Max Inhibition (%), efferocytosis by human macrophages, Donor C
Respond with a number, then the unit of measure.

Query :: Complete the entry with Max Inhibition (%), efferocytosis by human macrophages, Donor C for h10C3.v14 (antibody, V domains shown, Humanized, human IgG1; also called 10C3 Humanized polished mAb) VH: EVQLVESGGGLVQPGGSLRLSCAASGFSLSGYTMGWVRQAPGKGLEYIGVISSGGTTYYTNWAKGRFTISKDNSKNTLYLQMGSLRAEDMAVYYCARVAFTAYGGGGFPTLHRLDLWGQGTLVTVSS VL: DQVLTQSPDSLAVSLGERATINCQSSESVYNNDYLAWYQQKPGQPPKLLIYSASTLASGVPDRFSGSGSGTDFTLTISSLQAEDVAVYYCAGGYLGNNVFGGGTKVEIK
Result :: 62%
